system: SK-MEL-2 melanoma; experiment: NCI tumour cell line growth inhibition, 48 h; in the data active means GI50 below about 0.43 µM; inactive means the rest
Outcome codes: active, inactive

• COc1cc(NC(=O)c2cc(OC)c3ccn(C)c3c2)cc2c1C[C@]1(C)CC[C@@H](O)C(C)(C)[C@H]1O2 = inactive
• Cc1cc(C)c(O)c(CNCCCCCCNCc2cc(C)cc(C)c2O)c1 = inactive
• CCN1C(=O)N(CC)C2C1NN=c1s/c(=C3\C(=O)N(CC(C)C)c4ccccc43)c(=O)n12 (stereo unspecified) = inactive
• CCCc1ccc(S(=O)(=O)N[C@H]2CC[C@H]3[C@@H]4CCc5cc(O)ccc5[C@H]4CC[C@]23C)cc1 = inactive
• C=C1CC[C@@]2(C#N)[C@H]3[C@H](CC[C@@H]2C)[C@@H](C)C[C@@H](CC(C)(C)C#N)[C@H]13 = inactive
• CCC1=C[C@@H]2CN(C1)Cc1c([nH]c3ccccc13)[C@@](C(=O)OC)(c1cc3c(cc1OC)N(C=O)[C@H]1[C@@](O)(C(=O)OC)[C@H](OC(C)=O)[C@]4(CC)[C@@H]5C[C@@H]5CN5CC[C@]31[C@@H]54)C2 = active
• COc1ccc(CNc2nc3cc(N)cc(N)c3nc2-c2ccccc2)cc1OC = inactive
• COc1ccc2c(c1)nc(N)c1c3cc(OC)c(OC)cc3cn21 = inactive
• c1ccc(C(=NNc2nc3ccccc3o2)c2ccccn2)nc1 = inactive
• CC(=O)C1CC2(c3ccc(C)cc3)C(c3ccc(C)cc3)=C(c3ccc(C)cc3)C1(c1ccc(C)cc1)S2=O (stereo unspecified) = inactive
• CCN(CC)CCOc1ccc(Nc2ncc3cc(-c4ccc(O)cc4)c(=O)n(C)c3n2)cc1 = inactive

---

system: UO-31 renal; assay: NCI tumour cell line growth inhibition, 48 h
READOUT LABEL: TGI

• Nc1nc(Nc2ccc3c(c2)CC[C@@H](N2CCCC2)CC3)nn1-c1cc2c(nn1)-c1ccccc1CCC2 = 2.19 µM
• Cc1ccc(S(=O)(=O)N(CC(O)c2ccccc2)c2ccccc2F)cc1 (configuration not stated) = 29.8 µM
• CC1=NC2(CCCCC2)N(Cl)C(=O)C1SC#N (configuration not stated) = 32.9 µM
• Nc1ccccc1/C=C\c1ccccc1 = > 100 µM
• COC(=O)C1=COC(C)C2C[n+]3ccc4c([nH]c5ccccc54)c3CC12 (configuration not stated) = > 100 µM
• CSc1nc2c(c(=O)n1C)N=C(c1ccc(Cl)cc1)CC(c1ccccc1)N2 (configuration not stated) = > 100 µM
• O=C(/C=C/C=C/c1ccccc1)CCc1ccccc1 = > 100 µM
• c1ccc2[nH]c(SSc3nc4ncncc4[nH]3)nc2c1 = > 30.9 µM
• FC(F)(F)c1cccc(COCCN2CCN(Cc3cccc(C(F)(F)F)c3)CC2)c1 = 24.9 µM
• O=C(CCCC1Cc2ccccc2C1=O)c1ccccc1 (configuration not stated) = > 100 µM
• c1ccc2c(c1)CCN(C1=NCCO1)C2 = > 10 µM
• O=C(Nc1ccc(-n2cc(-c3ccncc3)c(-c3ccc(O)c(Cl)c3)n2)cc1)c1cc(Cl)cc(Cl)c1 = > 32.5 µM
• CC1Cc2c(N)nc(NN)nc2NC1=O (configuration not stated) = > 100 µM
• Fc1ccc(Oc2nccc(-c3c(-c4ccc(F)cc4)ncn3C3CCNCC3)n2)cc1 = > 25 µM
• CC1(C)CC(=O)C2=C(C1)NC(SCC(=O)O)=C(C#N)C2c1ccc(Br)cc1 (configuration not stated) = 15.6 µM
• Nc1nc2cc(CNc3ccc(C(=O)O)cc3)ccc2nc1-c1ccccc1 = > 100 µM
• C1CNCCNCCNCCN1 = > 100 µM
• c1cc2c(cc1C(N1CCNCC1)N1CCNCC1)OCO2 = > 100 µM
• COc1ccc2c(c1)C1Oc3ccccc3CC1(O)CO2 (configuration not stated) = > 100 µM
• Cc1ccc(S(=O)(=O)Nc2nc3ccccc3c(=O)n2C2CCCCC2)cc1 = > 100 µM
• O=C(O)C(F)(F)C(F)(F)C(F)(F)C(F)(F)C(=O)O = > 100 µM
• c1ccc2c(c1)nc1n2CCNC1 = > 100 µM

Source listed as PubChem BioAssay (NCI).
